Origin of values: patent US20120114647A1

- target-system: T1, human serum albumin (human, UniProt P02768 25-609)
- T1 construct: also called HSA; human SA
- assay: SPR (BIAcore), eight-point dilution kinetics
quantity: Kd (nM)

Known results for binders:
DOM7r-31-14 (VHH) VHH: EVQLLESGGGLVQPGGSLRLSCTASGFTFRHYRMGWVRQAPGKGLEWVSWIRPDGTFTYYADSVKGRFTISRDNSKNTLYLQMNSLRAEDTAVYYCAKSYMADRFDYWGQGTLVTVSS	58
DOM7r-92-4 (VHH) VHH: EVQLLESGGGLVQPGGSLRLSCAASGFTFDTSSMLWVRQAPGKGLEWVSVIHQSGTPTYYADSVKGRFTISRDNSKNTLYLQMNSLRAEDTAVYYCAKFPSTHGKFDYWGQGTLVTVSS	130
DOM7r-201 (VHH) VHH: EVQLLESGGGLVQPGGSLRLSCAASGFTFNHYTMGWVRQAPGKGLEWVSLIHPSGTVIYYADSVKGRFTISRDNSKNTLYLQMNSLRAEDTAVYYCAKWSSRAFDYWGQGTLVTVSS	60
DOM7r-36-2 (VHH) VHH: EVQLLESGGGLVQPGGSLRLSCAASGFTFNHYTMGWVRQAPGKGREWVSLIHPSGTVTYYADSVKGRFTISRDNSKNTLYLQMNSLRAEDTAVYYCAKWSSRAFDYWGQGTLVTVSS	150

1 = DOM7r-36-8 (VHH) VHH: EVQLLESGGGLVQPGGSLRLSCAASGFTFNHYTMGWVRQAPGKGLEWVSLIHPSGTVIYYADSVKGRFTISRDNSKNTLYLQMNSLRAEDTAVYYCARWSSRAFDYWGQGTLVTVSS
2 = DOM7h-98-4 (VHH) VHH: EVQLLESGGGLVQPGGSLRLSCAASGFTFGNYAMAWVRQAPGKGLEWVSSIDMVGIKTYYADSVKGRFTNSRDNSKNTLYLQMNSLRAEDTAVYYCARGFRIFDYWGQGTLVTVSS
Task: Looking at recorded values for Kd, does 1 or 2 come in lower? Write down the label attached to your selection.
Output: 1
